Record form. Attribute: IL-8 [abs. corr.]. Fill in for each entry.
Molecular target: T1, CD27 expressed on the cell surface (HT1080_CD27 cells) (human, UniProt P26842 20-260); further: test concentration or dose not given here
T1 sequence (looked up): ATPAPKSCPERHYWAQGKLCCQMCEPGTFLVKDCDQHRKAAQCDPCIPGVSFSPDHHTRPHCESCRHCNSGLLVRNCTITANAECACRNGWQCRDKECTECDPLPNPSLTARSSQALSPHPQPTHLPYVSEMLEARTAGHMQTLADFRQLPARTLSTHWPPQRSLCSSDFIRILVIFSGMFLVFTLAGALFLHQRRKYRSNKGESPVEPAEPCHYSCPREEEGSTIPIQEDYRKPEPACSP
Assay: cell-based or functional assay
Note: unit abs. corr. is implicit; provide only the numeric part.

Prompt: # query: IL-8 [abs. corr.] of entry P018.S.08.A.D02 (antibody, V domains shown, V regions on human Ig constant parts; also called AB27_138) VH: QSVEESGGRLVTPGTPLTLTCTVSGFSLSHYHILWVRQAPGEGLKYIGITLNNGRIDYATWAKGRFTISKTSTTVDLEITSPTTEDTATYFCAKYFVSESYDLWGQGTLVTVSS VL: TAVLTQTPSPVSAAVGSTVTINCQASQSVYNDNWLSWYQQKPGQPPKLLIYGASTLASGVPSRFKGSGSGTQFTLTISDVQSGDAATYYCLGGYKDNSDNVFGGGTEVVVK
Completion: 0.534

Prompt: Same again, this time with P018.S.05.A.B02 (antibody, V domains shown, V regions on human Ig constant parts; also called AB27_83) VH: QSLEESGGRLVTPGTPLTLTCKVSGFSLSSYDMIWVRQAPGKGLEWIGIVSTGGSAGYASWAKGRFTITKTSTTVDLKITSPTTEDTATYFCARIISGGRDLWGPGTLVTVSS VL: DIVMTQTPASVEAAVGGTVTIKCQASESISSRLAWYQQKPGQPPKLLIYSASTLAFGVSSRFKGSGSGTQFTLTISDLESADAATYYCQSYYYSSTASYASNNAFGGGTEVVVK
Completion: 0.633

Prompt: Same again, this time with P018.S.02.A.G01 (antibody, V domains shown, V regions on human Ig constant parts; also called AB27_37) VH: QSLEESGGRLVTPGTPLTLTCTVSGIDLSSNAMNWVRQAPGKGLEWIGIIYTSGSTYYASWVKGRFTISRTSTTVDLEMTSLTTEDTATYFCARGVTIDWFDLWGQGTLVTVSS VL: AAVLTQTPSSVSAAVGGTVTINCQSSPSVYSNYLSWFQQKPGQPPKLLIYGASTLTSGVPSRFKGSGSGTQFTLTINDVQSDDAATYWCLGGYGDINDTTFGGGTEVVVK
Completion: 0.127
